- Subject Of Test: T1, CD22 on cynomolgus monkey peripheral blood B cells (cynomolgus monkey (Macaca fascicularis))
- T1 construct: whole, on cells; also called cynomolgus monkey B cells
- Assay Method Text: FACS, cynomolgus PBMC, CD20+ B cells, antibody 10 nM
Kindly state Proportion of chimeric antibody positive cells to B cells (%) for each of the entries shown.
Answer format: numeric, % implied, no suffix.

Prompt line: What value of Proportion of chimeric antibody positive cells to B cells (%) has been recorded for this entry: F2.343.16 (antibody, human IgG1, lambda, V domains shown, human-murine chimeric IgG1 lambda; VL name legible) VH: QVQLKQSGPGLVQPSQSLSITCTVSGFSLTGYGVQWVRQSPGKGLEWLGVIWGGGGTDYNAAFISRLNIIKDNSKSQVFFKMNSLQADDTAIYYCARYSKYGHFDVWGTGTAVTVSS VL: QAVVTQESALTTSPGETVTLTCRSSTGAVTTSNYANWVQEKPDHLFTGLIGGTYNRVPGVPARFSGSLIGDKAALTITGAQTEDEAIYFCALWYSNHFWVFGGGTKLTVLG
Response line: 21

Prompt line: What value of Proportion of chimeric antibody positive cells to B cells (%) has been recorded for this entry: F1.280.1 (antibody, human IgG1, kappa, V domains shown, human-murine chimeric IgG1 kappa) VH: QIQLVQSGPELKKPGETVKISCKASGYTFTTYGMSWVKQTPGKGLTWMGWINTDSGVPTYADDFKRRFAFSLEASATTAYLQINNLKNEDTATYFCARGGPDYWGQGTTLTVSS VL: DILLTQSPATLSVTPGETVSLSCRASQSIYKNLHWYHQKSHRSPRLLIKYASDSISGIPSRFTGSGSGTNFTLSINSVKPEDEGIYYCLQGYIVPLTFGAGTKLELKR
Response line: 18

Prompt line: What value of Proportion of chimeric antibody positive cells to B cells (%) has been recorded for this entry: F1.224.1 (antibody, human IgG1, kappa, V domains shown, human-murine chimeric IgG1 kappa; VL name legible) VH: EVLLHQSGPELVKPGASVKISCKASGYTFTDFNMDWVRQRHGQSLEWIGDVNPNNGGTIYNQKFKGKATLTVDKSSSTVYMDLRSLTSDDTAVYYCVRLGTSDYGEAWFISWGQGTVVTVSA VL: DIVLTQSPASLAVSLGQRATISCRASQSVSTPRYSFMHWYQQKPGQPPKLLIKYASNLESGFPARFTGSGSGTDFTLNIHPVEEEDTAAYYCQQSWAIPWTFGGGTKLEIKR
Response line: 96

Prompt line: What value of Proportion of chimeric antibody positive cells to B cells (%) has been recorded for this entry: F2.127.11 (antibody, human IgG1, lambda, V domains shown, human-murine chimeric IgG1 lambda; VL name legible) VH: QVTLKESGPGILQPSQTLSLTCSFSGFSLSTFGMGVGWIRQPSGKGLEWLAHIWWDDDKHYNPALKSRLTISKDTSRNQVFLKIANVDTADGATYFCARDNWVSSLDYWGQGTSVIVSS VL: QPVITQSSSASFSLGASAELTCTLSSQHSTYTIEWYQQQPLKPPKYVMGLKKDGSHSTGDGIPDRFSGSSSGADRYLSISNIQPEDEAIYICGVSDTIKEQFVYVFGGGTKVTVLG
Response line: 21

Prompt line: What value of Proportion of chimeric antibody positive cells to B cells (%) has been recorded for this entry: F2.70.2 (antibody, human IgG1, lambda, V domains shown, human-murine chimeric IgG1 lambda) VH: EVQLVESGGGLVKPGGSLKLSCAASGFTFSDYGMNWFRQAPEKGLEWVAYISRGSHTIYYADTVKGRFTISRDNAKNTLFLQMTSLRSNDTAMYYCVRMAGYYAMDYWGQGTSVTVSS VL: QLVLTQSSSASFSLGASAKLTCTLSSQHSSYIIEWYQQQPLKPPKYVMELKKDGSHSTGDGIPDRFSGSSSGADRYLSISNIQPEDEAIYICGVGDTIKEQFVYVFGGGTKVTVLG
Response line: 20
